I'd be grateful if you could share measured activity change, negative = inhibition for these entries.
experiment: qHTS Assay for Lipid Storage Modulators (AID 1519); conditions: Drosophila S3 cells, BODIPY lipid droplet/cell ratio, laser cytometry; at 25.7 µM (top of the series); cells loaded with oleic acid; note: % is set by controls: 0 for no effect and ±100 for the full control effect
Results filed as inconclusive are left out.
Answers are plain numbers, in %.

Clc1cccc(Cl)c1NC1=NCCN1; -3.52
Cn1cnc([N+](=O)[O-])c1Sc1ncnc2nc[nH]c12; -1.38
Cc1[nH]c(=O)c(C#N)cc1-c1ccncc1; 2.58

From here, focus on the item given below.
### Prompt I'd like to know its activity change, negative = inhibition. The compound in question is `N#Cc1ccc(C(c2ccc(C#N)cc2)n2cncn2)cc1`
### Response 0.817

###

target: Cytochrome P450 3A4 (Homo sapiens) (UniProt P08684); assay: qHTS Assay for Activators of Cytochrome P450 3A4 (AID 885); settings: recombinant CYP3A4, Luciferin-PPXE luminescence, 60 min; series mostly up to 57.1 µM; note: nearly all actives have a fitted effect of over 65% in size
Sequence (P08684 whole entry, looked up): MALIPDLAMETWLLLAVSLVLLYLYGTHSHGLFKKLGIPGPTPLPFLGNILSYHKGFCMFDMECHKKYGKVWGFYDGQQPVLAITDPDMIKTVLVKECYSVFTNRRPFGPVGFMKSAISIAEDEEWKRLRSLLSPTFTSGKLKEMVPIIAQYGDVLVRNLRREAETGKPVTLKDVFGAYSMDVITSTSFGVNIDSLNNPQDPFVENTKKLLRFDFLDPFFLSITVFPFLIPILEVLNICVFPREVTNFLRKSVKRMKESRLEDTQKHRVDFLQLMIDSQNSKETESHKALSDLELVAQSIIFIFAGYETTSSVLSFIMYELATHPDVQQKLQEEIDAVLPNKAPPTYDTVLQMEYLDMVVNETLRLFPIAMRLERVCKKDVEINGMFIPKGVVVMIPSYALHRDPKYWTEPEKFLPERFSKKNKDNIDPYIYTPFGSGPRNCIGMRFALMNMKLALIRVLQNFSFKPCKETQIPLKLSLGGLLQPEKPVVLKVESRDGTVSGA
The source made the active and inactive calls. The call rests on the fitted dose curve; in most records, active means well fitted activation curve with a large enough effect; inconclusive means small, poorly fitted or top-dose-only effect; inactive means no such curve, though single readings can be large or run the other way.
REPORTED_METRIC: outcome

O=C1CCc2cc(OCCCCc3nnnn3C3CCCCC3)ccc2N1; inactive
CC(C)(Sc1ccc(CCN(CCCCC2CCCCC2)C(=O)NC2CCCCC2)cc1)C(=O)O; inactive
COc1ccc2nc(S(=O)Cc3ncc(C)c(OC)c3C)[nH]c2c1 (stereo not drawn); inactive

###

target: Cytochrome P450 2D6 (Homo sapiens) (UniProt P10635); test: Cytochrome P450 family 2 subfamily D member 6 (CYP2D6) small molecule antagonists: luciferase biochemical (cell-free) qHTS assay (AID 1645840); details: P450-Glo CYP2D6 enzyme, luciferin luminescence, 1 h; series mostly up to 57.4 µM; note: nearly all actives have a fitted effect of over 55% in size
Sequence (P10635 whole entry, looked up): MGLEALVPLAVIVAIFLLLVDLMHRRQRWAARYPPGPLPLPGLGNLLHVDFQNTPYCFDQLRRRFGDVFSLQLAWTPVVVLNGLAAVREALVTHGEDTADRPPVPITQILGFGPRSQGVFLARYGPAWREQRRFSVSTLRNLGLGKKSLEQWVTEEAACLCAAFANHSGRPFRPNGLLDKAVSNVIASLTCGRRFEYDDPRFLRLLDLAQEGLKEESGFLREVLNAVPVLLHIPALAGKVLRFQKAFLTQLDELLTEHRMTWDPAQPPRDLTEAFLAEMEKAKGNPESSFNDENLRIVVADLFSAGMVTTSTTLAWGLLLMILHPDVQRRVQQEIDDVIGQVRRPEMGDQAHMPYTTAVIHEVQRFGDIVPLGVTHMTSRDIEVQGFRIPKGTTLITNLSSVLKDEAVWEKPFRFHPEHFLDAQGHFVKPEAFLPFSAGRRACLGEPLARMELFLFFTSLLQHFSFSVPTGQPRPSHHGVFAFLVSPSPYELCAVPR
Records with an inconclusive call do not appear. Active and inactive are the calls of the source. The call rests on the fitted dose curve; in most records, active means well fitted inhibition curve with a large enough effect in the repeat runs; inconclusive means weak or mixed curves; inactive means flat fitted curve, though single readings scatter.
Reply using exactly one outcome from y for active, n for inactive

Solved cases (5 shown):
CCCC(CCC)C(=O)O; n
CCCc1nn(C)c2c(=O)[nH]c(-c3cc(S(=O)(=O)N4CCN(C)CC4)ccc3OCC)nc12; n
NCCc1ccc(O)c(O)c1; n
OC(CCN1CCCCC1)(c1ccccc1)C1CC2C=CC1C2 (configuration not stated); y
COc1ccc2nc(S(=O)Cc3ncc(C)c(OC)c3C)[nH]c2c1 (configuration not stated); n

### Prompt Call for entry `O=C1CCc2cc(OCCCCc3nnnn3C3CCCCC3)ccc2N1` :
### Response n

### Prompt Call for entry `NC[C@H](O)c1ccc(O)c(O)c1` :
### Response n

###

assay: Identifying Small Molecule Inhibitors of Pancreatic Cancer Stem Cells (SN12C, Adherent) (AID 1259358); conditions: viability/growth inhibition; series mostly up to 46.1 µM;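 note: cell survival measured after 48 h of compound exposure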; note: potency is the fitted concentration of half-maximal effect
Inconclusive results are not listed. Active and inactive are the calls of the source. Calls follow the shape of the dose curve; as a rule, active = well fitted cell-killing curve with a large enough effect; inconclusive = small, poorly fitted or top-dose-only effect; inactive = flat fitted curve, though single readings scatter.
REPORTED_METRIC: Potency

CC(C)c1onc(-c2c(Cl)cccc2Cl)c1COc1ccc(/C=C/c2cccc(C(=O)O)c2)c(Cl)c1; inactive
C[C@]1(c2nc3c(C(N)=O)cccc3[nH]2)CCCN1; inactive
Nc1ncnc2nc(-c3ccc(N4CCOCC4)nc3)cc(-c3cccc(Br)c3)c12; inactive
O=C(C=Cc1ccc(/C=C/C(=O)Nc2ccc(C3=NCCN3)cc2)cc1)Nc1ccc(C2=NCCN2)cc1; inactive

// each molecule listed below needs its Potency
1. Cc1ccc2c(c1)C(=O)[C@@]1(O)CCN(c3ccccc3)C1=N2
2. Cn1cnc2c(F)c(Nc3ccc(Br)cc3Cl)c(C(=O)NOCCO)cc21
3. CS(=O)(=O)Oc1ccc2c(NC(N)=O)c(C(=O)c3ccc(Cl)cc3Cl)oc2c1
4. Cc1c(CN2CCN(C(=O)C(C)C)CC2)sc2c(N3CCOCC3)nc(-c3cnc(N)nc3)nc12

### Response
["inactive", "1180 nM (active)", "inactive", "93.5 nM (active)"]

// each molecule listed below needs its Potency
1. N#Cc1ccc(C(c2ccc(C#N)cc2)n2cncn2)cc1
2. Cc1ccccc1C(C(=O)NC1CCCC1)N(C(=O)Cn1cnc2ccccc21)c1cccc(F)c1 (stereo not given)
3. COc1ccccc1[C@H](c1cccc2ccccc12)[C@@](C)(C#N)C(=O)N1CCC(c2cccc(C(F)(F)F)c2)CC1

### Response
inactive
inactive
inactive

// each molecule listed below needs its Potency
1. O=C(O)CCc1ccc(NCc2cccc(Oc3ccccc3)c2)cc1
2. Clc1ccc(Nc2nnc(Cc3ccncc3)c3ccccc23)cc1
3. CCOC(=O)C1=C[C@@]2(CC)CCCN3CCc4c(n1c1ccccc41)[C@H]32
4. CN[C@@H](C)C(=O)N[C@H]1CCCC[C@H]2CC[C@@H](C(=O)N[C@@H](c3ccccc3)c3cn(CCCCc4ccc(CCCCn5cc([C@@H](NC(=O)[C@@H]6CC[C@@H]7CCCC[C@H](NC(=O)[C@H](C)NC)C(=O)N76)c6ccccc6)nn5)cc4)nn3)N2C1=O
5. COc1cccc2cc(-c3nc(C4CCC(C(=O)O)CC4)n4ncnc(N)c34)[nH]c12 (stereo not given)
6. CCCc1nn(C)c2c(=O)[nH]c(-c3cc(S(=O)(=O)N4CCN(C)CC4)ccc3OCC)nc12

### Response
["inactive", "inactive", "inactive", "inactive", "833 nM (active)", "inactive"]

// each molecule listed below needs its Potency
1. Cc1[nH]c(=O)c(C#N)cc1-c1ccc2nccn2c1
2. COc1cc2c(cc1OC)CN(CCc1ccc(NC(=O)c3cccc4c(=O)c5cccc(OC)c5[nH]c34)cc1)CC2
3. COc1ccccc1-c1cccc(-c2c(O)c3cc(C#N)c(Cl)cc3[nH]c2=O)c1

### Response
1: inactive; 2: inactive; 3: inactive

###

test: qHTS Screen of the MIPE 4.0 Collection Against Ewings Sarcoma (RDES) (AID 1259252); details: RD-ES Ewing sarcoma viability, CellTiter-Glo, 48 h; series mostly up to 45.8 µM; note: nearly all actives have a fitted effect of over 35% in size; note: potency is the fitted concentration of half-maximal effect
Records with an inconclusive call do not appear. The source made the active and inactive calls. The call rests on the fitted dose curve; in most records, active means well fitted inhibition curve with a large enough effect; inconclusive means small, poorly fitted or top-dose-only effect; inactive means no such curve, though single readings can be large or run the other way.
REPORTED_METRIC: Potency

CNC[C@H](O)c1cccc(O)c1; inactive
CCN(CC)CCCC(C)Nc1ccnc2cc(Cl)ccc12 (configuration not stated); inactive
c1ccc([C@H]2CN3CCSC3=N2)cc1; inactive
COc1ccc2c3n(c(=NC(=O)c4cccnc4)nc2c1OC)CCN3; 2.09 µM (active)
CC(C=CC1=C(C)CCCC1(C)C)=CC=CC(C)=CC(=O)O; 23.5 µM (active)
Nc1ccc(S(=O)(=O)Nc2ccnn2-c2ccccc2)cc1; inactive

// each molecule listed below needs its Potency
1. N=c1nc(N2CCCCC2)cc(N)n1O
2. CCn1cc(C(=O)O)c(=O)c2cc(F)c(N3CCNC(C)C3)c(F)c21 (configuration not stated)
3. Cc1cc(Nc2nc(N[C@@H](C)c3ncc(F)cn3)ncc2Cl)n[nH]1
4. CS(=O)(=O)c1cccc(CNc2nc(Nc3ccc4c(c3)CCC(=O)N4)ncc2C(F)(F)F)c1
5. Oc1cccc(-c2nc(N3CCOCC3)c3oc4ncccc4c3n2)c1
6. C[C@H](NC(=O)Cc1cc(F)cc(F)c1)C(=O)N[C@@H]1C(=O)N(C)c2ccccc2-c2ccccc21

### Response
1: inactive; 2: inactive; 3: 6.62 µM (active); 4: 20.9 µM (active); 5: 0.96 µM (active); 6: 8.33 µM (active)

###

assay: Quantitative High-Throughput drug screen in 47 multiple myeloma cell lines against the NCATS MIPE library collection: MOLP8_DSMZ cell viability assay (AID 1918977); conditions: MOLP8 myeloma viability, CellTiter-Glo ATP luminescence, 48 h; series mostly up to 45.8 µM; note: nearly all actives have a fitted effect of over 45% in size
Records with an inconclusive call do not appear. Calls of active or inactive are those of the source. The call rests on the fitted dose curve; in most records, active means well fitted cell-killing curve with a large enough effect; inconclusive means small, poorly fitted or top-dose-only effect, or effect the other way; inactive means no such curve, though single readings can be large or run the other way.
Reply using exactly one outcome from active, inactive

Solved cases (4 shown):
Clc1cccc(Cl)c1NC1=NCCN1; inactive
CCCc1nc2c(C)cc(-c3nc4ccccc4n3C)cc2n1Cc1ccc(-c2ccccc2C(=O)O)cc1; inactive
CC(=O)Oc1ccccc1C(=O)O; inactive
O=c1[nH]cnc2[nH]ncc12; inactive

### Prompt Call for entry OC(CN1CCC(Cc2ccc(F)cc2)CC1)c1ccc(Cl)cc1 (centres undefined) :
### Response inactive

### Prompt Call for entry CCN(CC)CCCC(C)Nc1ccnc2cc(Cl)ccc12 (centres undefined) :
### Response inactive

### Prompt Call for entry `CS(=O)(=O)c1ccc(C(=O)Nc2ccc(Cl)c(-c3ccccn3)c2)c(Cl)c1` :
### Response inactive

### Prompt Call for entry `CC1(C)Cc2c(-c3ccccc3)c(-c3ccc(Cl)cc3)c(CC(=O)O)n2C1` :
### Response active

### Prompt Call for entry `COc1ccc(-c2ccc3c(N4CCOCC4)nc(N4C[C@@H](C)O[C@@H](C)C4)nc3n2)cc1CO` :
### Response active

### Prompt Call for entry CC(C[N+](C)(C)C)OC(N)=O (centres undefined) :
### Response inactive

### Prompt Call for entry `O=C(O)[C@@H](c1ccc(OCc2ccc3ccccc3n2)cc1)C1CCCC1` :
### Response inactive

### Prompt Call for entry `CN(C)C(=O)c1ccc(S(=O)(=O)c2ccc(NC(=O)[C@@](C)(O)C(F)(F)F)c(Cl)c2)cc1` :
### Response inactive

### Prompt Call for entry `Oc1cccc(-c2nc(N3CCOCC3)c3oc4ncccc4c3n2)c1` :
### Response active

### Prompt Call for entry `Cc1cnc(NC(=O)C2=C(O)c3ccccc3S(=O)(=O)N2C)s1` :
### Response inactive
